Sourced from PubChem BioAssay (NCI)

- protocolSummary: NCI Yeast Anticancer Drug Screen. Data for the sgs1 mgt1 strain (AID 161);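 further: 0% = growth of cultures given vehicle only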
- conditionParameters: S. cerevisiae sgs1 mgt1 strain, at 50.0 µM (retest, dose inferred, filed as 5.0)
- Description: Growth inhibition of yeast strains with defined genetic alterations is measured as a screen for potential anti-cancer activity. Selected strains with alterations in DNA damage repair or cell cycle control were exposed to compounds and growth inhibition was measured relative to vehicle treated controls. The strain used in this assay is sgs1 mgt1
Compounds without any hit were thinned out: in the full panel of roughly 79,000, 15% have a hit. The source made the active and inactive calls. No stated cut-off is given here; in the data, active means growth inhibition above about 70%; inactive means the rest.
The reply should name one outcome from 1.0 for active, 0.0 for inactive

Here are 4 compounds together with their reported answers.
compound: CC(=O)ON=C1C=CC(=C(C#N)c2ccccc2)C=C1
classAssignment: 1.0
//
compound: Clc1ccccc1CN1COc2c(ccc3cccnc23)C1
classAssignment: 0.0
//
compound: Oc1cc2ccccc2c2ccccc12
classAssignment: 1.0
//
compound: CCC[CH2][Sn]1([CH2]CCC)[O]C(=O)CN=Cc2c(ccc3ccccc23)[O]1
classAssignment: 0.0

query: // param item: CC(C)N(CN1C(=O)N/C(=C/c2cccc(/C=C3/NC(=O)N(CN(C(C)C)C(C)C)C3=O)c2)C1=O)C(C)C ; yields the recorded call
result: 0.0

query: // param item: O=C(N/C(=C\c1ccccc1Cl)c1nc2ccccc2s1)c1ccccc1 ; yields the recorded call
result: 1.0

query: // param item: c1ccc(CCc2c[nH]c3ccccc23)cc1 ; yields the recorded call
result: 0.0

query: // param item: Cc1cc(N)c2c(c1O)C(=O)c1ccccc1C2=O ; yields the recorded call
result: 0.0

query: // param item: O=S(O)CCCCCSSc1ccccc1 ; yields the recorded call
result: 0.0

query: // param item: O=C1Sc2sc(=S)sc2SC1c1ccccc1 (stereo not given) ; yields the recorded call
result: 1.0

query: // param item: CN(C)c1nc(=NCc2ccccc2)ss1 ; yields the recorded call
result: 1.0

query: // param item: O=C1Nc2ccccc2/C1=N\N=c1/scc(-c2ccccc2)n1-c1ccccc1 ; yields the recorded call
result: 0.0

query: // param item: C[N+]12CC3C4CC(C3C1)C2C4 (stereo not given) ; yields the recorded call
result: 0.0

query: // param item: COc1ccc(/C=c2\sc3nnc(CCC(=O)Nc4cccc(C(F)(F)F)c4)n3c2=O)cc1 ; yields the recorded call
result: 0.0

query: // param item: COC(=O)CCC(NC(=S)N/N=C/c1ccccn1)C(=O)OC (stereo not given) ; yields the recorded call
result: 0.0

query: // param item: C/C(=N\NC(=S)N1CCN(c2ccccn2)CC1)c1ccccn1 ; yields the recorded call
result: 1.0

query: // param item: Cc1ccc(C)c(NC(=O)CC2SC(=Nc3ccccc3Cl)NC2=O)c1 (stereo not given) ; yields the recorded call
result: 1.0

query: // param item: Oc1ccc2ccc3ccccc3c2c1 ; yields the recorded call
result: 1.0
